Target: F508delCFTR (Homo sapiens, UniProt P13569, DEL508-508)
Construct: expressed in transfected cells; host or cells: CFBE4lo-F508delCFTR-HRP cells (human lung derived epithelial cell line, doxycycline-inducible)
Sequence (P13569 with tags, fused parts or gaps DEL508-508): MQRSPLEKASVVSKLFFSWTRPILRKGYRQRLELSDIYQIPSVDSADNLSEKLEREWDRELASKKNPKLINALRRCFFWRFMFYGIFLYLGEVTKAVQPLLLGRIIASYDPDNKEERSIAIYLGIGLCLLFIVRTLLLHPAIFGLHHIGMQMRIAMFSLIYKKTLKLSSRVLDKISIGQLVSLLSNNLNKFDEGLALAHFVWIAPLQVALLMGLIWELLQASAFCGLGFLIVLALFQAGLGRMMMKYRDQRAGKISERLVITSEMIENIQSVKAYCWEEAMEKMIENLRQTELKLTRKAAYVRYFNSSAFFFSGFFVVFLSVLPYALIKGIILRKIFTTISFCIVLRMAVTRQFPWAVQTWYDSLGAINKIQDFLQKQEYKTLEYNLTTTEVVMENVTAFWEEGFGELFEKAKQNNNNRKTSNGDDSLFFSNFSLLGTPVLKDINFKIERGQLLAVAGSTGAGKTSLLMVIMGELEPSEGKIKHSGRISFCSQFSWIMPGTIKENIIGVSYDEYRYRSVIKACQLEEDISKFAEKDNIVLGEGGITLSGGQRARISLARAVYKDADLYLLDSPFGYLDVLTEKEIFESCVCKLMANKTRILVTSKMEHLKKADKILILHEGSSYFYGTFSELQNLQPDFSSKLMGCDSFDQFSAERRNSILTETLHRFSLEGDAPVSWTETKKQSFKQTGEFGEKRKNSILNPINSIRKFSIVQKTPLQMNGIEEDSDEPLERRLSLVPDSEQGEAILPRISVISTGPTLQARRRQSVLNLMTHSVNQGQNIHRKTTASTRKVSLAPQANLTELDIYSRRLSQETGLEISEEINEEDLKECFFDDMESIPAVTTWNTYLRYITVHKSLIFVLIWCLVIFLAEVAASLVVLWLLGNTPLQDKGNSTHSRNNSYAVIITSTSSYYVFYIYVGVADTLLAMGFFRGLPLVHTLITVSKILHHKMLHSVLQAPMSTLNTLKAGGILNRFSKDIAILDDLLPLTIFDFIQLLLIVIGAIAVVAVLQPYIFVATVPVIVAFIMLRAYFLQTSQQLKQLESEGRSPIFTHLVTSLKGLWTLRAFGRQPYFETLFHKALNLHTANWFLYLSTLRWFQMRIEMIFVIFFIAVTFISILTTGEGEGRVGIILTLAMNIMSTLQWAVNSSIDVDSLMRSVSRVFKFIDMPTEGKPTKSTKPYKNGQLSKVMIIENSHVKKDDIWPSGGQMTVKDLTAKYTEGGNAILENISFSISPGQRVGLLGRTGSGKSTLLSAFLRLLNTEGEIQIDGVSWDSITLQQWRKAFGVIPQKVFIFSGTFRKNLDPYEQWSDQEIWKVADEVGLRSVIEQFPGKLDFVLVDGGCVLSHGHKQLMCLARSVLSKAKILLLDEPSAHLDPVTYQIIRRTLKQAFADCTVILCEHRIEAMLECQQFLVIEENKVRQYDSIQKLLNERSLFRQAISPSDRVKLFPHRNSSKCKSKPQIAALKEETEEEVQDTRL
Test: Cell Surface Expression-Horse Radish Peroxidase (CSE-HRP) Assay
Format: cell-based
Conditions: test compound without co-corrector; maximum at any tested concentration (up to 20 μM), normalized to on-plate positive control (2 μM co-corrector)
Description: Cell Surface Expression-Horse Radish Peroxidase (CSE-HRP) Assay […] The maximum % activity achieved for the test compound either without or with a co-corrector at any tested concentration is presented in Table 1 along with the respective EC50's calculated using the following general sigmoidal curve with variable Hill slope equation (described as Model 42 in the Accelrys® Assay Explorer v3.3 software): y=(a−d)/(1+(x/c)^b)+d […]
Assign Emax to each entry below.

Look at this compound and give its reported Emax. COc1ccc(C2CCC2)c2c1[C@@H](C(=O)NS(=O)(=O)c1cccc3c1CCCN3)CO2 [Example 100]
50 to 150%

Tell me the measured Emax of CCC1(C(=O)NS(=O)(=O)c2cccc3ccccc23)CCOc2cccc(OC)c21 (centres unmarked) [Example 10] , please.
≥ 150%

Could you share which Emax value was measured for COc1ccc(C2CCC2)c2c1[C@H](C(=O)NS(=O)(=O)c1cccc3c1CCCN3)CCO2 [Example 92] ?
≥ 150%

Any idea what Emax was measured for COc1cccc2c1C(C(=O)NS(=O)(=O)c1cccc3ccccc13)CO2 (centres unmarked) [Example 20] ?
< 50%

Entry under review: COc1ccc(C#N)c2c1C(C(=O)NS(=O)(=O)c1cccc3ccccc13)CC(C)(C)O2 (centres unmarked) [Example 50] . Reported Emax?
50 to 150%

Returns the measured Emax for the input compound. Input: COc1ccc(C2CCC2)c2c1[C@@H](C(=O)NS(=O)(=O)c1cccc3c1CCCN3)CC(C)(C)O2 [Example 96]
≥ 150%

I'd like to know its Emax. The compound in question is O=C(NS(=O)(=O)c1cccc2ccccc12)C1(c2ccccc2)C[C@@H](CN2CCCC2)Oc2ccccc21 (some centres unmarked) [Example 31]
< 50%

Can you share its Emax? I mean this compound: COc1ccc2c(c1)C(C(=O)NS(=O)(=O)c1cccc3ccccc13)(c1ccccc1)CC(C)(C)O2 (centres unmarked) [Example 3]
≥ 150%

Which Emax value is on record for C[C@@]1(C(=O)NS(=O)(=O)c2cccc3ccccc23)COc2cc3c(cc21)OC(F)(F)O3 [Example 32] ?
< 50%

Tell me the measured Emax of COc1ccc(C2CCC2)c2c1OCC[C@@H]2C(=O)NS(=O)(=O)c1cccc2ncccc12 (single isomer, unassigned) [Example 107] , please.
< 50%

Given COc1ccc(C2CCC2)c2c1[C@H](C(=O)NS(=O)(=O)c1cccc3[nH]ccc13)CCO2 [Example 104] , state its recorded Emax.
≥ 150%

Could you share which Emax value was measured for O=C(NS(=O)(=O)c1cccc2ccccc12)C1CCOc2ccccc21 (centres unmarked) [Example 24] ?
50 to 150%

Query: Emax; subject: O=C(NS(=O)(=O)c1cccc2ccccc12)C1(c2ccccc2)COc2ccccc21 (centres unmarked) [Example 6]
50 to 150%

Please report the recorded Emax for CCCS(=O)(=O)NC(=O)C1COc2ccc(Cl)cc21 (centres unmarked) [Example 28] .
< 50%

Need Emax, item COc1ccc(C2CCC2)c2c1C(C(=O)NS(=O)(=O)c1cccn3nccc13)CO2 (centres unmarked) [Example 88]
≥ 150%

Record request: Emax value, item COc1ccc(C2CCC2)c2c1C(C(=O)NS(=O)(=O)c1cccc3ncn(C)c13)CO2 (centres unmarked) [Example 87]
≥ 150%

Record request: Emax value, item O=C(NS(=O)(=O)c1cccc2ccccc12)C1CCOc2c(Cl)cccc21 (centres unmarked) [Example 7]
≥ 150%

Bench note: what Emax did COc1ccc(C2CCC2)c2c1[C@H](C(=O)NS(=O)(=O)c1cccc3cnn(C)c13)CO2 [Example 95] show?
≥ 150%

Param item = COc1ccc(C2CCC2)c2c1C(C(=O)NS(=O)(=O)c1cccc3[nH]ccc13)CCO2 (centres unmarked) [Example 102] ; retrieve measured Emax.
≥ 150%

Give the measured Emax of COc1ccc(Cl)c2c1[C@H](C(=O)NS(=O)(=O)c1cccc3ccccc13)CO2 (single isomer, unassigned) [Example 68] .
≥ 150%

Give its Emax value. Item: COc1ccc(Br)c2c1C(C(=O)NS(=O)(=O)c1cccc3ccccc13)CCO2 (centres unmarked) [Example 11]
≥ 150%

Fill in: Emax of COc1ccc(C2CCC2)c2c1C(C(=O)NS(=O)(=O)c1cccc3ncccc13)CCO2 (centres unmarked) [Example 54] is ___
≥ 150%

What value of measured Emax is listed for COc1ccc(OC)c2c1OCC2C(=O)NS(=O)(=O)c1cccc2ccccc12 (centres unmarked) [Example 62] ?
≥ 150%

Given COc1ccc(Br)c2c1[C@@H](C(=O)NS(=O)(=O)c1cccc3ccccc13)CO2 (single isomer, unassigned) [Example 73] , state its recorded Emax.
50 to 150%

Form field: reported Emax of COc1ccc(C2CCC2)c2c1C(C(=O)NS(=O)(=O)c1cccc3ncccc13)CO2 (centres unmarked) [Example 80]
≥ 150%

Any idea what Emax was measured for COc1ccc(C2CCC2)c2c1C(C(=O)NS(=O)(=O)c1cccc3nc(C)ccc13)CCO2 (racemic) [Example 75] ?
≥ 150%

Given the compound COc1ccc(C2CCC2)c2c1[C@H](C(=O)NS(=O)(=O)c1cccc3ccccc13)CCO2 [Example 56] , what is its reported Emax?
≥ 150%

Given the entry COc1ccc(C2CCC2)c2c1C(C(=O)NS(=O)(=O)c1cccc3c1NCCC3)CO2 (centres unmarked) [Example 90] , report its measured Emax.
≥ 150%

Quick check: Emax of COc1ccc(Br)c2c1CCOC2C(=O)NS(=O)(=O)c1cccc2ccccc12 (centres unmarked) [Example 108] ?
50 to 150%

Return reported Emax; argument: CCSC[C@H]1C[C@@](C(=O)NS(=O)(=O)c2cccc3ccccc23)(c2ccccc2)c2ccccc2O1 [Example 2]
50 to 150%

Which measured Emax value corresponds to COc1ccc(Br)c2c1[C@H](C(=O)NS(=O)(=O)c1cccc3ccccc13)CCO2 [Example 36] ?
≥ 150%

Would you kindly share the measured Emax for COc1ccc(Br)c2c1[C@H](C(=O)NS(=O)(=O)c1cccc3ncccc13)CC(C)(C)O2 [Example 72] ?
≥ 150%

----------
molecular target: F508delCFTR (Homo sapiens, UniProt P13569, DEL508-508); construct: expressed in transfected cells; host or cells: CFBE4lo-F508delCFTR-HRP cells (human lung derived epithelial cell line, doxycycline-inducible); assay: Cell Surface Expression-Horse Radish Peroxidase (CSE-HRP) Assay; type: cell-based; conditions: test compound without co-corrector; CFBE4lo-F508delCFTR-HRP cells, 18-24 hours at 33° C., HRP luminescence readout; read-out: EC50 (without co-corrector)
experimental_readout: EC50

Given the compound CCC1(C(=O)NS(=O)(=O)c2cccc3ccccc23)COc2cccc(OC)c21 (centres unmarked) [Example 8] , what is its reported EC50?
3 to 10 µM

Look at this compound and give its reported EC50. COc1ccc(C2CCC2)c2c1[C@H](C(=O)NS(=O)(=O)c1cccc3c1NCCC3)CO2 [Example 99]
< 3 µM

Item under review: Cc1ccccc1S(=O)(=O)NC(=O)C1(C)Cc2ccccc2O1 (centres unmarked) [Example 16] . Reported EC50?
≥ 10 µM

What value of EC50 has been reported for the following compound? O=C(NS(=O)(=O)c1cccc2ccccc12)C1COc2c(Br)cccc21 (centres unmarked) [Example 21]
3 to 10 µM

Consider the compound COc1ccc(C2CCC2)c2c1OCC[C@H]2C(=O)NS(=O)(=O)c1cccc2ncccc12 (single isomer, unassigned) [Example 106] and give its measured EC50.
< 3 µM

Item COc1cccc2c1C(C(=O)NS(=O)(=O)c1cccc3ccccc13)CC(C)(C)O2 (centres unmarked) [Example 49] has what recorded EC50?
3 to 10 µM

Fill in: EC50 of COc1ccc(Cl)c2c1C(C(=O)NS(=O)(=O)c1cccc3ccccc13)CC(C)(C)O2 (centres unmarked) [Example 51] is ___
< 3 µM

Entry COc1ccc(C(F)(F)F)c2c1[C@H](C(=O)NS(=O)(=O)c1cccc3ccccc13)CCO2 [Example 58] : reported EC50 = ?
< 3 µM

// returns reported EC50 for input COc1ccc(C(F)(F)F)c2c1C(C(=O)NS(=O)(=O)c1cccc3ccccc13)CCO2 (centres unmarked) [Example 53]
< 3 µM

What EC50 value was documented for this compound, COc1ccc(Br)c2c1C(C(=O)NS(=O)(=O)c1cccc3ccccc13)CO2 (centres unmarked) [Example 39] ?
< 3 µM

Requested field: EC50. Item: O=C(NS(=O)(=O)c1cccc2ccccc12)C1COc2c(Cl)cccc21 (centres unmarked) [Example 43]
3 to 10 µM

State the recorded EC50 for this entry: COc1cccc2c1C(C(=O)NS(=O)(=O)c1cccc3ncccc13)CC(C)(C)O2 (centres unmarked) [Example 48]
3 to 10 µM

// lookup EC50 for COc1ccc(C2CC2)c2c1C(C(=O)NS(=O)(=O)c1cccc3ccccc13)CCO2 (centres unmarked) [Example 64]
3 to 10 µM

Consider the compound shown here: O=C(NS(=O)(=O)c1cccc2ccccc12)C1(c2ccccc2)CCOc2ccc(Cl)cc21 (centres unmarked) [Example 19] What is its recorded EC50?
3 to 10 µM

Give the measured EC50 of Cc1ccccc1S(=O)(=O)NC(=O)C1CCOc2ccccc21 (centres unmarked) [Example 30] .
≥ 10 µM

Fill blank: measured EC50 of the compound CCSC[C@H]1C[C@@](C(=O)NS(=O)(=O)c2cccc3ccccc23)(c2ccccc2)c2ccccc2O1 [Example 2] is ____.
< 3 µM

I'd like to know its EC50. The compound in question is COc1ccc(Br)c2c1C(C(=O)NS(=O)(=O)c1cccc3ncccc13)CC(C)(C)O2 (centres unmarked) [Example 46]
< 3 µM

Give the measured EC50 of CCC1(C(=O)NS(=O)(=O)c2cccc3ccccc23)COc2c(Br)cccc21 (centres unmarked) [Example 22] .
3 to 10 µM

Reported EC50 for Cc1ccc2c(c1)C(C(=O)NS(=O)(=O)c1cccc3ccccc13)(c1ccccc1)CCO2 (centres unmarked) [Example 18] : what is it?
3 to 10 µM

If you can, please state the reported EC50 value of CC(C)c1ccc(S(=O)(=O)NC(=O)C2(C)Cc3ccccc3O2)cc1 (centres unmarked) [Example 26] .
≥ 10 µM

Which measured EC50 value corresponds to COc1ccc(C2CCC2)c2c1[C@@H](C(=O)NS(=O)(=O)c1cccc3ccccc13)CCO2 [Example 55] ?
3 to 10 µM

Give its EC50 value. Item: COc1ccc(C2CCC2)c2c1[C@H](C(=O)NS(=O)(=O)c1cccc3ncccc13)CCO2 [Example 60]
< 3 µM

Form field: reported EC50 of Cc1ccccc1S(=O)(=O)NC(=O)C1COc2ccccc21 (centres unmarked) [Example 29]
≥ 10 µM

Please give the measured EC50 for this compound: COc1ccc(C2CCC2)c2c1C(C(=O)NS(=O)(=O)c1cccc3ncccc13)CCO2 (centres unmarked) [Example 54]
3 to 10 µM

What value of measured EC50 is listed for CCC1(C(=O)NS(=O)(=O)c2cccc3ccccc23)COc2c(C(F)(F)F)cccc21 (centres unmarked) [Example 61] ?
3 to 10 µM

Given the compound COc1cccc2c1CCOC2C(=O)NS(=O)(=O)c1cccc2ccccc12 (centres unmarked) [Example 110] , what is its reported EC50?
≥ 10 µM

Endpoint output: EC50 of COc1cccc2c1OCC2C(=O)NS(=O)(=O)c1cccc2ccccc12 (centres unmarked) [Example 25] . Value?
3 to 10 µM

What value of measured EC50 is listed for COc1cccc2c1C(C(=O)NS(=O)(=O)c1cccc3ccccc13)CO2 (centres unmarked) [Example 20] ?
3 to 10 µM

Request the reported EC50 associated with COc1ccc(C2CCC2)c2c1[C@@H](C(=O)NS(=O)(=O)c1cccc3cnn(C)c13)CO2 (single isomer, unassigned) [Example 94]
3 to 10 µM

Reported EC50, compound COc1ccc(Br)c2c1[C@H](C(=O)NS(=O)(=O)c1cccc3ccccc13)CO2 (single isomer, unassigned) [Example 74] : ____
< 3 µM

So what's the measured EC50 for this one? COc1ccc(Cl)c2c1C(C(=O)NS(=O)(=O)c1cccc3ccccc13)CO2 (centres unmarked) [Example 63]
3 to 10 µM

Need EC50, item COc1ccc(C2CCC2)c2c1[C@@H](C(=O)NS(=O)(=O)c1cccc3c1NCCC3)CO2 (single isomer, unassigned) [Example 98]
3 to 10 µM
